System: Mycobacterium tuberculosis
Assay: Antimycobacterial activity against Mycobacterium tuberculosis H37Rv infected in human THP1 cells treated prior to infection measured after 4 days by luciferase reporter gene assay
Assay type: functional, organism-based
Details: THP-1, 96 h
Residues, ends and D or L forms follow the SMILES beside them.
VALUE_KIND: IC50 (nM)

>>> reported_result("CC(C)C[C@@H]1NC(=O)[C@H](Cc2c[nH]c3ccccc23)NC(=O)[C@@H](CCCN)NC(=O)[C@H](CC(N)=O)NC(=O)[C@H](C(C)C)NC(=O)[C@@H](CC(C)C)NC1=O (HELM PEPTIDE1{[NCCC[C@@H](N[*:1])C(=O)[*:2]].W.L.[dL].V.N}$PEPTIDE1,PEPTIDE1,1:R1-6:R2$$$V2.0)")
1260
>>> reported_result("CC[C@H](C)[C@@H]1NC(=O)[C@@H](CC(C)C)NC(=O)[C@H](CC(C)C)NC(=O)[C@H](Cc2c[nH]c3ccccc23)NC(=O)[C@@H](CCCNC(=N)N)NC(=O)[C@H](CC(N)=O)NC1=O (HELM PEPTIDE1{I.N.[dR].W.L.[dL]}$PEPTIDE1,PEPTIDE1,1:R1-6:R2$$$V2.0)")
200
>>> reported_result("CC[C@H](C)[C@@H]1NC(=O)[C@@H](CC(C)C)NC(=O)[C@H](CC(C)C)NC(=O)[C@H](Cc2c[nH]c3ccccc23)NC(=O)[C@@H](CCCN)NC(=O)[C@H](CC(N)=O)NC1=O")
800
>>> reported_result("CC[C@@H](C)[C@@H]1NC(=O)[C@@H](CC(C)C)NC(=O)[C@H](CC(C)C)NC(=O)[C@H](Cc2c[nH]c3ccccc23)NC(=O)[C@@H](CCCN)NC(=O)[C@H](CC(N)=O)NC1=O")
800

Where do these numbers come from? They come from ChEMBL document CHEMBL4229459.
